test: Plasma pharmacokinetics in patients; format: in vivo, human; conditions: human, plasma, po, terminal elimination half-life, range, patients
READOUT TYPE: half-life

[ask] Data request, read-out half-life, for Cc1c(CN2CCN(C(=O)[C@H](C)O)CC2)sc2c(N3CCOCC3)nc(-c3cnc(N)nc3)nc12 [apitolisib]
[reply] 3.26 to 45.4 h

----------
experiment: Plasma pharmacokinetics in patients; format: in vivo, human; conditions: human, plasma, po, mean terminal elimination half-life, patients
READOUT TYPE: half-life (h)
Dear colleague, please return just the value in h, with no unit written.

[ask] Could you tell me which half-life is on file for Cc1c(CN2CCN(C(=O)[C@H](C)O)CC2)sc2c(N3CCOCC3)nc(-c3cnc(N)nc3)nc12 ?
[reply] 11.3
